# ASSAY_NAME: gradient 5% acetonitrile 3 min, to 50% in 2 min, to 85% in 15 min, held 3 min, 100 µL/min
# SETTINGS: column: Zorbax Extend-C18 2.1 x 50 mm; eluents: water / acetonitrile, 0.1% formic acid
Threshold check on RP-LC retention time: at or above 800 s gives TRUE, strictly below gives FALSE.

CCn1c(=O)c2ccccc2n(Cc2nc(-c3ccc(OC)c(OC)c3)no2)c1=O
TRUE
Cc1cc(OCC(O)CN2CCN(C)CC2)ccc1Cl (stereo not given)
FALSE

Could you now look at the following compound, please?
Prompt: Decide: RP-LC retention time of "Cc1ccc(OCc2nc(Cc3nc(-c4ccccc4)oc3C)no2)cc1" >= 800 s?
Completion: TRUE

---

Assignment: determine reported RP-LC retention time for the given compounds.
# ASSAY_NAME: gradient 5% acetonitrile 3 min, to 50% in 2 min, to 85% in 15 min, held 3 min, 100 µL/min
# SETTINGS: column: Zorbax Extend-C18 2.1 x 50 mm; eluents: water / acetonitrile, 0.1% formic acid
I'd appreciate it if you wrote the number followed by its unit.

Look over these answered cases.
O=c1c(NCCc2cccnc2)nc2ccncc2n1Cc1ccccc1
539 s
CC(C)c1ccc(S(=O)(=O)N2CCC3(CCN(c4cccnc4)C3)C2)cc1 (centres undefined)
736 s
COc1ccccc1NC(=O)c1ccc2nc(-c3ccccc3)cn2c1
725 s
CCOc1ccc(-c2noc(Cn3c(=O)n(-c4ccccc4C)c(=O)c4sccc43)n2)cc1OC
960 s
CN1CCN(C(=O)c2ccc(-c3nnc4ccc(NC(=O)C5CCC5)cn34)cc2)CC1
587 s

// each listed compound needs a value for RP-LC retention time
1. Cc1ccc(C)c(CNC(=O)c2ccc3ncnc(N4CCCC4)c3c2)c1
2. CN(C)S(=O)(=O)c1ccc(C(=O)Nc2sc(-c3ccccc3)cc2C(N)=O)cc1
3. CCc1ccc(NC(=O)C2CCN(S(=O)(=O)c3cn(C(C)C)cn3)CC2)cc1
4. CCc1nnc2cc(N3CCN(Cc4ccc(C(C)C)cc4)CC3)cnn12

Completion:
["678 s", "925 s", "840 s", "608 s"]

---

# ASSAY_NAME: gradient 5% acetonitrile 3 min, to 50% in 2 min, to 85% in 15 min, held 3 min, 100 µL/min
# SETTINGS: column: Zorbax Extend-C18 2.1 x 50 mm; eluents: water / acetonitrile, 0.1% formic acid
METRIC: RP-LC retention time (s)
Give bare numbers, in s.

CCCN1CCN(c2cc(C(=O)O)c3cc(NC(=O)c4cccc(Cl)c4)ccc3n2)CC1
654
O=C(Cn1ccc2ccc(N3CCOCC3)nc21)N1CCN(c2ccccc2)CC1
879
CC1CCCCN1S(=O)(=O)c1ccc(C(=O)Nc2nc3c(s2)Cc2ccccc2-3)cc1 (stereo not given)
1190

// each listed compound needs a value for RP-LC retention time
1. CCc1nc2cc(-c3noc(-c4ccc(NC(C)=O)cc4)n3)ccc2o1
2. Cc1ccc(-c2noc(Cn3nc(-c4ccc5c(c4)OCO5)ccc3=O)n2)cc1C
3. CCOCCCNC(=O)c1nc(Nc2ccccc2)c2ccccc2n1
4. O=C(CSc1ccc(-c2ccco2)nn1)N1CCCCC1
5. COc1ccccc1-c1noc(C2CCCN2C(=O)Nc2cccc(F)c2)n1 (stereo not given)

Completion:
1. 925
2. 1060
3. 1130
4. 690
5. 894

// each listed compound needs a value for RP-LC retention time
1. COc1ccc(S(=O)(=O)N2CCCC(C(=O)N(C)Cc3ccccc3)C2)cc1OC (stereo not given)
2. Cn1ncc(N2CCCC(CC(=O)NCc3cccs3)C2)cc1=O (stereo not given)

Completion:
1: 859; 2: 676

---

Assignment: determine reported RP-LC retention time for the given molecules.
# ASSAY_NAME: gradient 5% acetonitrile 3 min, to 50% in 2 min, to 85% in 15 min, held 3 min, 100 µL/min
# SETTINGS: column: Zorbax Extend-C18 2.1 x 50 mm; eluents: water / acetonitrile, 0.1% formic acid
Answers are plain numbers, in s.

O=C(Cc1ccc(Cl)cc1)NCc1nc(-c2ccc3oc(-c4ccccc4)nc3c2)no1
1110
CCN1CCN(C(=O)CN2c3ccc(C(C)C)cc3-c3ccccc3S2(=O)=O)CC1
712
Cc1cc(N2CCN(C)CC2)nc2ccc(NC(=S)NC3CCCc4ccccc43)cc12 (stereo not given)
632
O=c1cc(CSc2nnc(-c3ccc4c(c3)OCO4)o2)nc2sccn12
727

Attention now shifts to the item below.
Prompt: Given the molecule CCc1ccc(CNC(=O)C2CCCN(c3nccnc3Oc3ccc(C)cc3)C2)cc1 (stereo not given) , what is its reported RP-LC retention time?
Completion: 1150

---

# ASSAY_NAME: gradient 5% acetonitrile 3 min, to 50% in 2 min, to 85% in 15 min, held 3 min, 100 µL/min
# SETTINGS: column: Zorbax Extend-C18 2.1 x 50 mm; eluents: water / acetonitrile, 0.1% formic acid
METRIC: RP-LC retention time
I'd appreciate it if you wrote the number followed by its unit.

COc1ccc(Cl)cc1NC(=O)c1c(N)c(C(=O)c2cccs2)n2ccccc12
1140 s

// each listed molecule needs a value for RP-LC retention time
1. Cc1ccc(C)c(C(=O)N2CCN(c3nc4cccnc4o3)CC2)c1
2. O=C(NCc1ccc(Cl)cc1)C1CCN(C(=O)c2cc3ccsc3[nH]2)CC1
3. O=C(NCC1CCCCC1)C1CCCN(c2nccn3nc(-c4ccccc4Cl)cc23)C1 (stereo not given)

Completion:
1. 765 s
2. 797 s
3. 1040 s

Prompt: Given the molecule "COc1cc(NC(=O)COc2cc(C)nc(N3CCN(c4ccccc4)CC3)n2)cc(OC)c1OC" , what is its reported RP-LC retention time?
Completion: 764 s

---

# ASSAY_NAME: gradient 5% acetonitrile 3 min, to 50% in 2 min, to 85% in 15 min, held 3 min, 100 µL/min
# SETTINGS: column: Zorbax Extend-C18 2.1 x 50 mm; eluents: water / acetonitrile, 0.1% formic acid
METRIC: RP-LC retention time (s)
One number for each entry, in s.

Look over these answered cases.
O=C(c1ccc(F)cc1F)N1CCN(c2cc(-c3cccs3)[nH]n2)CC1
784
Cc1ccc(NC(=O)C2(Cc3ccccc3)CCCCC(=O)N2)cc1 (stereo not given)
848
COC(=O)c1ccc(NC(=O)c2oc(C)nc2C)cc1
658
COc1ccc(Nc2cc(C(=O)N3CCCC3)nc3ccc(C)cc23)cc1
659

Attention now shifts to the item below.
Prompt: Given the compound "O=C(CSc1ncnc2ccccc12)N1CCCc2ccccc21" , what is its reported RP-LC retention time?
Completion: 844

---

Assignment: determine reported RP-LC retention time for the given compounds.
# ASSAY_NAME: gradient 5% acetonitrile 3 min, to 50% in 2 min, to 85% in 15 min, held 3 min, 100 µL/min
# SETTINGS: column: Zorbax Extend-C18 2.1 x 50 mm; eluents: water / acetonitrile, 0.1% formic acid
Answers are plain numbers, in s.

Look over these answered cases.
Cn1ccc2cc(S(=O)(=O)N3CCCC(C(=O)NCCCN4CCCCCC4)C3)ccc21 (centres undefined)
668
CNC(=O)c1sc2nc(-c3ccccc3)c(NCCOC)n2c1C
637
CCn1cc(CN2CC(Oc3ccc(-c4noc(-c5ccncc5)n4)cc3)C2)cn1
633

// each listed compound needs a value for RP-LC retention time
1. Cc1cccc(CN2CC(=O)N(c3cccc(C)c3)[C@@H]3CS(=O)(=O)C[C@@H]32)c1
2. CCC(=O)N(C)c1nc2ccccc2n(CC(=O)Nc2c(C)cc(C)cc2C)c1=O
3. Cc1ccc(CNC(=O)N2CCCC(C)(C(=O)NCc3ccccc3C)C2)cc1 (centres undefined)
4. CCOc1ccc(-c2cc3c(=O)n(Cc4nc(-c5ccc(OC)c(OC)c5)no4)ncn3n2)cc1
5. O=C(Nc1ccccc1)c1ccc(=O)n(CCN2CCOCC2)c1
6. CCC1Oc2ccc(S(=O)(=O)N3CCC(C(=O)NCc4cccc(C)c4)CC3)cc2NC1=O (centres undefined)

Completion:
1. 826
2. 822
3. 916
4. 1060
5. 590
6. 893

---

Assignment: determine reported RP-LC retention time for the given compounds.
# ASSAY_NAME: gradient 5% acetonitrile 3 min, to 50% in 2 min, to 85% in 15 min, held 3 min, 100 µL/min
# SETTINGS: column: Zorbax Extend-C18 2.1 x 50 mm; eluents: water / acetonitrile, 0.1% formic acid
Give bare numbers, in s.

Look over these answered cases.
O=C(CN1C(=O)NC2(CCCCC2)C1=O)Nc1ccc(F)cc1F
736
CN(CCc1noc(-c2ccc(C(=O)N3CCCCC3)cc2)n1)C(=O)c1ccc2c(c1)OCO2
779
O=C(NCc1ccccc1Cl)C1CCc2nc(N3CCOCC3)ncc2C1 (centres undefined)
726
CCN1CCC(N(Cc2ccc3c(c2)OCO3)C(=O)Nc2cccc(C)c2)CC1
691
Cc1ccn2c(NC(=O)c3ccccc3F)c(-c3ccccc3)nc2c1
653
CC1CN(c2ccc(Cl)cc2)c2nc3c(c(=O)n(CCN4CCOCC4)c(=O)n3C)n2C1 (centres undefined)
686
Cc1ccc(-n2c(=O)n(CC(=O)Nc3cccc(C)c3C)c3cccnc32)cc1
907
CS(=O)(=O)N1CCC(C2CCN(Cc3ccc(C#N)cc3)C2)CC1 (centres undefined)
597

Attention now shifts to the item below.
Prompt: Given the compound "Cc1ccc2c(C(=O)N3CCC(C)CC3)cc(NC(=O)C3CCC3)cc2n1" , what is its reported RP-LC retention time?
Completion: 652

These data points were gathered from the METLIN SMRT retention time set (Domingo-Almenara et al. 2019).
